Measurement Protocol: soluble on expression in E. coli; label from the status in PepcDB or PDB records
Property Label: soluble on expression in E. coli

Here is how some sequences turned out for soluble on expression in E. coli.
Seq | Property Label | Endpoint Value
MGMKYLIKLKYIKPAQLAVNREQKLAEFYPIFEDGTLGRVEAKARVFLPEYSDFAKGLGFEVKKRRMITEDDYAYLRAMVYGVVMGVLRNPGDWRRLEERVLEMEPIELRYWASKFRNAYWKYKNMRKLMFLARRFMEVEMILEHHHHHH | soluble on expression in E. coli | soluble
MENSIRYISEHPTDFNGLLSLYESLGWNSLKLTVNELERMCKQSWYAIYVFDDKRLVGMGRVISDGVITGIICGVGVLPKYQSSGIGKEIVKRLIQHCEQNKVIPQLMCVEKLQSYYESIGFEAFSIGMTKHIIR | soluble on expression in E. coli | not soluble
SLGRIKAQAFGFDQTFQSYRKDDFVMAFFKDPNVIPNLKLLSDSSGQWIILGTEVKKIEAINVPCTQLSMSFFHRLYDEDIVRDSGHIVKCLDSFCDPFLISDELRRVLLVEDSEKYEIFSQPDREEFLFCLFKHLCLGGALCQYEDVISPYLETTKLIYKDLVSVRKNPQTKKIQITSSVFKVSAYDSAGMCYPSAKNHEQTFSYFIVDPIRRHLHVLYHCYGVGDMS | soluble on expression in E. coli | soluble
MSLGAYLSEPLTTKDSSDESNEFLASGSSSMQGWRISQEDAHNCILNFDDQCSFFAVYDGHGGAEVAQYCSLHLPTFLKTVEAYGRKEFEKALKEAFLGFDATLLQEKVIEELKVLSGDSAGSDAEPGKDSGCTAVVALLHGKDLYVANAGDSRCVVCRNGKALEMSFDHKPEDTVEYQRIEKAGGRVTLDGRVNGGLNLSRAIGDHGYKMNKSLPAEEQMISALPDIEKITVGPEDEFMVLACDGIWNFMTSEQVVQFVQERINKPGMKLSKICEELFDHCLAPHTRGDGTGCDNMTAIIVQFKEGHHHHHH | soluble on expression in E. coli | soluble
MAHHHHHHMVMSQRIAYVTGGMGGIGTSICQRLHKDGFRVVAGCGPNSPRRVKWLEDQKALGFDFYASEGNVGDWDSTKQAFDKVKAEVGEIDVLVNNAGITRDVVFRKMTREDWQAVIDTNLTSLFNVTKQVIDGMVERGWGRIINISSVNGQKGQFGQTNYSTAKAGIHGFTMSLAQEVATKGVTVNTVSPGYIGTDMVKAIRPDVLEKIVATIPVRRLGSPDEIGSIVAWLASEESGFSTGADFSLNGGLHMG | soluble on expression in E. coli | soluble

[ask] Fill blank: measured soluble on expression in E. coli of the sequence "MGAVGRGRRMSERHLRRSTHKVGDITLGAVHRLNCHCGAVQIDLDLPHGLVDPRRCDCSMCRRRGAIVASVPLQGLHVRQGEDVLRLYQFNTHAAAHYFCGVCGIYTHHRRRSNPNEYGYNVGCLEGVNPYALNITVPVEDGIHHPADRVAPQLEHHHHHH" is ____.
[reply] not soluble

----------
Measurement Protocol: soluble on expression in E. coli; label from the status in PepcDB or PDB records
Property Label: soluble on expression in E. coli

Seq | Endpoint Value
MGCVPRIEFGCSSQSLTLSWNLRAWNLCRLNTISHFQKLPYPLVASTRKHYKNSLLLKRFLVGVGTEESSLSEDLLDESLSRPLTSDELKSLLIDTERSKLVKKLSEANQQNRFLKRQEHEITNIKTELALMELEVQALVKLAEEIANLGIPQGSRKISGKYIQSHLLSRLDAVQKKMKEQIKGVEAAQSKEVHVFWIGMAESVQVMGSFDGWSQREDLSPEYSALFTKFSTTLFLRPGRYEMKFLVDGEWQISPEFPTSGEGLMENNVLVVE | soluble
MGHHHHHHSNKIERIIARLQRRIAEGQPEEQYEAAQETRLVAARYSKQGNWAAAVDILASVSQTLLRSGQGGSGGDLAVLLVDTFRQAGQRVDGASRGKLLGCLRLFQPGEPVRKRFVKEMIDWSKKFGDYPAGDPELHHVVGTLYVEEGEFEAAEKHLVLGTKESPEVLARMEYEWYKQDESHTAPLYCARAVLPYLLVANVRAANTAYRIFTSALVEDNKGLTVQNIGSQSAELRIFPSLPLLNFISMLLLSVQKGSPDLFRQLKSKYEANLNELNGIWDTALELIAEMYFGIQRPRQSNPLLDMMGSLFGGGGGAPSKAALRRIDTPAAEGLD | soluble
